Target: OR3A1 (Homo sapiens)
Sequence (whole entry): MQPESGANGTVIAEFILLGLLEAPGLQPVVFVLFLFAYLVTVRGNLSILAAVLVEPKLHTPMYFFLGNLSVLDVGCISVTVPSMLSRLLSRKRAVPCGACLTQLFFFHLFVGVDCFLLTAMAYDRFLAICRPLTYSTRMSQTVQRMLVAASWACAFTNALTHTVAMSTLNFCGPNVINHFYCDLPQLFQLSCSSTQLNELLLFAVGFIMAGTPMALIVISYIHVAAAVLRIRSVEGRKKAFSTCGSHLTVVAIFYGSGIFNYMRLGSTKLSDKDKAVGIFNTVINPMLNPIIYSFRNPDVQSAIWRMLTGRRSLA
Conditions: stereoisomer not certain
Pick from 1 (active), 0 (inactive) when you respond.

As a guide, the following entries are already answered.
Molecule | Assigned Category
CC(=O)c1c(C)c([N+](=O)[O-])c(C(C)(C)C)c([N+](=O)[O-])c1C | 0
CC(CC=O)c1ccccc1 (stereo unspecified) | 1
CCCCCCCC(=O)OCCCCCC | 0
CCCCCC(=O)C(C)C(C)=O (stereo unspecified) | 0
Cc1ccc(CC(C)C=O)cc1 (stereo unspecified) | 1

Please indicate how the test categorized `CC(C=O)=Cc1ccccc1` .
0

Please indicate how the test categorized CC(CO)CS (stereo unspecified) .
0

Please indicate how the test categorized `CCCCCCC=CCCC=O` .
0

Please indicate how the test categorized CCC1OC(=O)C(O)=C1C (stereo unspecified) .
0

Please indicate how the test categorized CC(C=O)Cc1ccc(C(C)(C)C)cc1 (stereo unspecified) .
1

Please indicate how the test categorized CCCCCC(S)C(C)CO (stereo unspecified) .
0

----------
Molecular target: Or10j5 (Mus musculus) (UniProt Q62007)
Sequence (whole entry): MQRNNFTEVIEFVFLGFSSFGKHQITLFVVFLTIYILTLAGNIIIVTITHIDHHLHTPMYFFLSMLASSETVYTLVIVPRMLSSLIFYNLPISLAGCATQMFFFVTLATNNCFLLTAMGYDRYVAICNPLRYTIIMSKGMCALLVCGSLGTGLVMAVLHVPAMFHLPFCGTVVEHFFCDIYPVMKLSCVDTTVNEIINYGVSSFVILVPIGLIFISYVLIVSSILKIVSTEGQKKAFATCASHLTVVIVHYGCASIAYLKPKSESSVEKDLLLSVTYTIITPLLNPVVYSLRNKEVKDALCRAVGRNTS
Conditions: stereoisomer not certain
Pick from t for active, f for inactive when you respond.

Please indicate how the test categorized `CCCCCCCC(=O)[O-].[H+]` .
t

Please indicate how the test categorized `CCCC(C)=O` .
f

----------
Molecular target: UniProt L7N210
Sequence (L7N210 as listed by the source): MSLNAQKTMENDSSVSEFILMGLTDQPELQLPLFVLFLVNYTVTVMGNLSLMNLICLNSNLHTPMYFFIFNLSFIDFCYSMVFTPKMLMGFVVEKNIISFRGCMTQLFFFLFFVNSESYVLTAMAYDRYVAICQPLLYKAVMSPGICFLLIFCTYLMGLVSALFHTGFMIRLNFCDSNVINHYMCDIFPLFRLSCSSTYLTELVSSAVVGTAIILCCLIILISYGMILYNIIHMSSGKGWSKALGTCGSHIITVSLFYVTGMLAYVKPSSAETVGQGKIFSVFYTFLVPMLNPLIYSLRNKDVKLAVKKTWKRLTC
Settings: stereoisomer not certain
Pick from TRUE = active, FALSE = inactive when you respond.

As a guide, the following entries are already answered.
Molecule | Target Or System | Assigned Category
Cc1ccc(C(C)C)cc1 | UniProt L7N210 | FALSE
CCc1ccccc1O | UniProt L7N210 | FALSE
O=C(O)CCCCCBr | UniProt L7N210 | FALSE

Please indicate how the test categorized CCC(C(=O)O)c1ccccc1 (stereo not drawn) .
FALSE

Please indicate how the test categorized C=C1C2CCC(C2)C1(C)C (stereo not drawn) .
FALSE

Please indicate how the test categorized `OCC=Cc1ccccc1` .
TRUE

Please indicate how the test categorized CCCCCC(C)O (stereo not drawn) .
FALSE

Please indicate how the test categorized `CCCCCCCCO` .
FALSE
